Biological target: PRMT5-MEP50 enzyme (Homo sapiens)
Construct: One virus expresses full length human PRMT5 with Flag-tag at N-terminus; Flag (N); purchased Charles River (Argenta); host or cells: insect cells (Sf9), baculovirus co-infection
Sequence (O14744 whole entry): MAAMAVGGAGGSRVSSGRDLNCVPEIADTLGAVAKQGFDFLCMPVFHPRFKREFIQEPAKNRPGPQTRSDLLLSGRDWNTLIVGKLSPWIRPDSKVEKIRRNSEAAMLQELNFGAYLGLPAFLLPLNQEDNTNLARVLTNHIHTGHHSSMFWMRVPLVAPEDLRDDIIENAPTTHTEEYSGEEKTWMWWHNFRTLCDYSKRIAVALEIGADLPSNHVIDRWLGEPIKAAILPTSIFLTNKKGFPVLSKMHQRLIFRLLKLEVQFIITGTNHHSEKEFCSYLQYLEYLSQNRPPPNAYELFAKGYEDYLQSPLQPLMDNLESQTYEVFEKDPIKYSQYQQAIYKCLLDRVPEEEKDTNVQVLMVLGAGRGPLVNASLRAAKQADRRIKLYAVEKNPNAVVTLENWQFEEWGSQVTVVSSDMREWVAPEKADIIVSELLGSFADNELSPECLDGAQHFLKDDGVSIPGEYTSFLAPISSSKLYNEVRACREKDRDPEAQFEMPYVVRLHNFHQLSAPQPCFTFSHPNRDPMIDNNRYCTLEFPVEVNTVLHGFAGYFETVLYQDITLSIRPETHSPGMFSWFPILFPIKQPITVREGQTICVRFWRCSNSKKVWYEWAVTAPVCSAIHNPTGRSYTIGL
Sequence (Q9BQA1 whole entry partner): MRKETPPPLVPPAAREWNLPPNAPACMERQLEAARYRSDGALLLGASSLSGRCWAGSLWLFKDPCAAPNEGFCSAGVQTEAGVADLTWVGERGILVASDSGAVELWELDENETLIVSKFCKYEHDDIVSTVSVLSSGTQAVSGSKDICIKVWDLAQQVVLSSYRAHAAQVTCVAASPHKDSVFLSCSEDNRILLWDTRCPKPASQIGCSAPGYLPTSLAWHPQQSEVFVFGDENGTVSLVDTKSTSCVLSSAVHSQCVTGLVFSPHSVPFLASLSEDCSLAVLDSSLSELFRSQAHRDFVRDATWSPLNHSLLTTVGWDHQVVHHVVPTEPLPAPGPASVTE
Assay: In vitro assay 1b: high throughput mass spectrometer assay of SAH formation, 1.25 nM enzyme, 120 min
Format: biochemical
Settings: averaged values; PRMT5-MEP50, 1.25 nM enzyme, 120 min; read-out: pIC50 Assay 1b (converted)
Description: Experimental Procedures In Vitro Assay (Assay 1a and 1b) PRMT5-MEP50 enzyme was purchased from Charles River (Argenta). The enzyme complex was produced in insect cells (Sf9) infected simultaneously with two baculoviruses. One virus expresses full length human PRMT5 with Flag-tag at N-terminus, the second virus expresses full length MEP50 with His6-TEV cleavage at N-terminus. […]
Readout type: IC50 (nM)

P: O[C@@H]1[C@H](O)[C@@H](CCc2ccc3ccc(NCC4CC4)nc3c2)O[C@H]1n1ccc2cncnc21
Q: Nc1ncnc2c1ccn2[C@@H]1O[C@H](COc2cccc3ncccc23)[C@@H](O)[C@H]1O
R: CNc1ncnc2c1ccn2[C@@H]1O[C@H](CCc2ccc3cc(Br)c(N)nc3c2)[C@@H](O)[C@H]1O
S: Cc1ncnc2c1ccn2[C@@H]1C[C@H](CCc2ccc3ccc(NCC4CC4)nc3c2)[C@@H](O)[C@H]1O
Sort the entries above by IC50, smallest first. When ranking, write the labels in the order the request describes.
S, R, P, Q

The measured values listed here are drawn from patent US11318157B2.
